Recorded values, source ChEMBL document CHEMBL4689842.

# Test system: HEK-293T
# assayName: Multiplex assay against HEK293T
# Assay type: toxicity, cell-based
# testParameters: human, 12 h, 1 µM, compound concentration 1 uM, replicate 2
Each record here notes measured Population Mitotic Cells (%).
parameterMeasured: Population Mitotic Cells (%)

>>> measurement("COC(=O)C1=C(C)NC(C)=C(C(=O)OCCCN2CCC(c3ccccc3)(c3ccccc3)CC2)[C@H]1c1cccc([N+](=O)[O-])c1")
8
>>> measurement("CC(C)c1noc(N2CCC(COc3ccc(-c4ccc(S(C)(=O)=O)cc4)nc3)CC2)n1")
87
>>> measurement("O=c1cc(N2CCOCC2)oc2c(-c3cccc4c3sc3ccccc34)cccc12")
85
>>> measurement("COc1ccc(-c2ccc3ncc4c(c3c2)n(-c2ccc(N3CCNCC3)c(C(F)(F)F)c2)c(=O)n4C)cn1.O=C(O)/C=C\\C(=O)O")
21
>>> measurement("CCOC(=O)Nc1cc(-c2ccc(C)c(NS(C)(=O)=O)c2)nn2c(C)nnc12")
87
>>> measurement("CNC(=O)Nc1ccc2c(c1)[C@@]1(CC2)OC(=O)N(CC(=O)N(Cc2ccc(F)cc2)[C@@H](C)C(F)(F)F)C1=O")
87
>>> measurement("Cc1nc(N2CC[C@H](O)C2)ncc1-c1cc(C(F)(F)F)cc2[nH]ncc12")
91
>>> measurement("COc1cc(Nc2nccc(-c3cnn4nc(OC)ccc34)n2)cc(C(F)(F)F)c1")
92
>>> measurement("C=CC(=O)Nc1ccc2[nH]c(=O)n(C3CCN(Cc4ccc(-c5nc6cc[nH]c(=O)c6cc5-c5ccccc5)cc4)CC3)c2c1")
85
>>> measurement("CN1CCN(Cc2ccc(Nc3ncc(Cl)c(Nc4ccccc4S(=O)(=O)N(C)C)n3)cc2)CC1")
86
>>> measurement("COc1cc2ncn(-c3cc(OCc4ccccc4C(F)(F)F)c(C(N)=O)s3)c2cc1OC [GW843682X]")
74
>>> measurement("CC(C)Oc1ccccc1C(=O)Nc1ccccc1C(=O)Nc1cccc(S(=O)(=O)C(F)(F)F)c1")
65
>>> measurement("CCc1nn(CCCN2CCN(c3cccc(Cl)c3)CC2)c(=O)n1CCOc1ccccc1.Cl [NEFAZODONE HYDROCHLORIDE]")
90
>>> measurement("CNC(=O)Nc1ccc(-c2nc(N3CC4CCC(C3)O4)c3cnn(C4CCC5(CC4)OCCO5)c3n2)cc1")
76
>>> measurement("CC(C)NC(=O)N1CC[C@H](NC2=Nc3cc(F)ccc3N(CC(F)F)c3ccc(Cl)cc32)C1")
91
>>> measurement("CCCSc1nc(N[C@@H]2C[C@H]2c2ccc(F)c(F)c2)c2nnn([C@@H]3C[C@H](OCCO)[C@@H](O)[C@H]3O)c2n1")
90
>>> measurement("CCc1ccc(OCc2ccccc2C(=O)Nc2ccc3nc(C)cc(N)c3c2)cc1.Cl")
26
>>> measurement("CC(C)OC(=O)N1CCC(Oc2ncnc3c2cnn3-c2ccc(S(C)(=O)=O)cc2F)CC1")
87
>>> measurement("CC1=C(C(=O)Nc2cc3cn[nH]c3cc2F)C(c2ccc(C(F)(F)F)cc2)CC(=O)N1 (stereo not drawn)")
93
>>> measurement("Cc1ccc(C)c(Oc2ccncc2C(=O)N2CCN(C3CC3)c3ccccc32)c1")
83
>>> measurement("C=CC(=O)Nc1cccc(Sc2nc(Nc3ccc(N4CCN(C)CC4)cc3)ncc2Cl)c1")
79
>>> measurement("CC(C)CC(=O)Nc1[nH]nc2c1CN(C(=O)C1CCN(C)CC1)C2(C)C")
80
>>> measurement("Cc1c[nH]c2nccc(Oc3c(F)cc(Nc4cc(Cl)nc(N)n4)cc3F)c12")
86
>>> measurement("C=CC(=O)Nc1cccc(Oc2nc(Nc3ccc(N4CCN(C)CC4)cc3OC)ncc2Cl)c1")
88
>>> measurement("Cl.O=C(O)c1cc(-c2ccc(C3CCNCC3)cc2)c2ccc(-c3ccc(C(F)(F)F)cc3)cc2c1")
93
>>> measurement("Cc1cccc(CN2CCN(C(c3ccccc3)c3ccc(Cl)cc3)CC2)c1.Cl.Cl (stereo not drawn)")
90
>>> measurement("Cc1ccc2c(c1)c1c(n2CCc2ccc(C)nc2)CCN(C)C1 [LATREPIRDINE]")
71
>>> measurement("Cc1ccccc1C(c1ccccc1C)N1C2CCC1CC(O)(c1ccccc1)C2 (stereo not drawn)")
86
>>> measurement("CC(C)(C)NC[C@H](O)COc1nsnc1N1CCOCC1")
87
>>> measurement("C[C@]12CC[C@@H]3c4ccc(O)cc4CC[C@H]3[C@@H]1CC[C@@H]2O")
95
>>> measurement("COc1ccccc1CN[C@H]1C2CCN(CC2)[C@H]1C(c1ccccc1)c1ccccc1")
91
>>> measurement("O=c1[nH]c2ccccc2n1C1CCN(Cc2ccc(-c3[nH]c4cc5ncnc5cc4nc3-c3ccccc3)cc2)CC1")
90
>>> measurement("O=C(c1cc2c(cc1F)OC(c1ccc(F)cc1)(c1ccc(Cl)cc1Cl)O2)N1CCOCC1 (stereo not drawn)")
84
